- Tgt: T1, PSMW39, human PSMA ECD (Lys44-Ala750), N-6xHis (human, UniProt Q04609 44-750)
- T1 construct: Made in Expi-CHO cells; also called PSMW39.002; recombinant human ECD
- Assay summary: SPR (Biacore 8K), antibody captured on goat anti-Fc C1 chip, PSMA ECD as analyte, 1:1 Langmuir fit
pKd: −log10 of the molar value.
Parameter: pKd

>  <Binder>
PSMB1088 (antibody, human IgG1, kappa, V domains shown, huIgG1, kappa light chain) VH: EVQLVESGGGVVQPGRSLRLSCAASGFTFSSYDMHWVRQAPGKGLEWVTVISFDGSNKYYVDSVKGRFTISRDNSKNTLYLQMNSLRAEDTAVYYCARTYYDILTGYSHYSYGMDVWGQGTTVTVSS VL: EIVMTQSPSSLSASVGDRVTITCRASQGISNYLAWYQQKPGKVPKLLIYATSTLQSGVPSRFSGSGSGTDFILTISSLQPEDVANYYCQKYNSAPFTFGPGTKVEIKR

>  <Quantitative readout>
9.01

$$$$
>  <Binder>
PSMB1183 (antibody, human IgG1, lambda, V domains shown, huIgG1, lambda light chain) VH: QVQLQESGPGLVKSSETLSLTCTVSGGSISSYYWNWIRQPAGKGLEWIGRIYSSGNTDYNPSLKSRVTMSVDTSKNQFSLKLISVTAADTAVYYCARGRGANVGLFDYWGQGTLVTVSS VL: QSALTQPPSVSGAPGQRVTISCTGSNSNIGANYDVHWYQHLPGTAPKLLIYGNINRPLGVPDRFSGSRSGTSASLAITGLQAEDEADYYCQSYDFSLSGSVFGVGTKLTVLG

>  <Quantitative readout>
9.03

$$$$
>  <Binder>
PSMB1157 (antibody, human IgG1, lambda, V domains shown, huIgG1, lambda light chain) VH: EVQLVESGGGVVQPGRSLRLSCAASVRTFSGYGMHWVRQVPGKGLEWVAVISYDGSNRYYADSVKGRFTISRDNSKNTLYLQMNSLRTEDTAVYYCARDGNWGSLDLYFDLWGRGTLVTVSS VL: QSVLTQPPSVSGAPGQRVTISCTGSSSNIGADYDVHWYQQLPGTAPKLLIYVNNNRPSGVPDRFSGSRSGTSASLAITGLQADDEADYYCQSYDNTLSGVVFGGGTKLTVLG

>  <Quantitative readout>
8.85

$$$$
